Biological target: T1, human TF ECD-His6 (human, UniProt P13726 33-251)
T1 construct: made in Expi293 cells; the entry holds the ECD with the C-terminal TG-His6; also called TF-His; hTF
Assay: SPR (Biacore), antibody on chip, TF-His titrated
Please go through the items and note down their Kd.
Answers are plain numbers, in nM.

Go through the list and state Kd for each entry.
1. 25A3 (antibody, human IgG1, kappa, V domains shown, human IgG1) VH: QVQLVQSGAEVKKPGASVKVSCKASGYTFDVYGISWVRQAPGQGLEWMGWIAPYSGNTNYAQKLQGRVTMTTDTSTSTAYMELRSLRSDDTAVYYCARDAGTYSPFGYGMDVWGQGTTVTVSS VL: DIQMTQSPSTLSASVGDRVTITCQASQSINNWLAWYQQKPGKAPKLLIYKAYNLESGVPSRFSGSGSGTEFTLTISSLQPDDFATYYCQLFQSLPPFTFGGGTKVEIKR
2. 54E (antibody, human IgG1, V domains shown, human IgG1) VH: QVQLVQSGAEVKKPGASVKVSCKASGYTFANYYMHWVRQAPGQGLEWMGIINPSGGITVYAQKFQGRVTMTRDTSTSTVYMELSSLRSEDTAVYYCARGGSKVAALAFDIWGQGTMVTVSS VL: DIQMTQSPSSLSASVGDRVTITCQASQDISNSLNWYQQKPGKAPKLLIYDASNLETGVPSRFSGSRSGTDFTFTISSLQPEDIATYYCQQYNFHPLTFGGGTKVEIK
3. 39A (antibody, human IgG1, V domains shown, human IgG1) VH: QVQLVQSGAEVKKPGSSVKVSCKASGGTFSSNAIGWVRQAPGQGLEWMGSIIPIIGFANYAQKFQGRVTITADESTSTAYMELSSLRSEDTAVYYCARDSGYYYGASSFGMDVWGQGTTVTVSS VL: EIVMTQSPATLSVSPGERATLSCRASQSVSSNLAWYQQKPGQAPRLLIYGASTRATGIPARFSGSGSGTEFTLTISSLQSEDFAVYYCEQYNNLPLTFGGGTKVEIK
4. 25G (antibody, human IgG1, kappa, V domains shown, human IgG1) VH: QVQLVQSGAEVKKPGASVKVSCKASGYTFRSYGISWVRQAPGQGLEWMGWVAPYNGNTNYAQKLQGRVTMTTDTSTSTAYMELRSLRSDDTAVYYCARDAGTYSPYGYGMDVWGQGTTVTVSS VL: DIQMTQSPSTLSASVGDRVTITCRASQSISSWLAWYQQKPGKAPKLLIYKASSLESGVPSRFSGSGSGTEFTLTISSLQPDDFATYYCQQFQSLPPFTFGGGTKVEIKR
5. 25G9 (antibody, human IgG1, kappa, V domains shown, human IgG1) VH: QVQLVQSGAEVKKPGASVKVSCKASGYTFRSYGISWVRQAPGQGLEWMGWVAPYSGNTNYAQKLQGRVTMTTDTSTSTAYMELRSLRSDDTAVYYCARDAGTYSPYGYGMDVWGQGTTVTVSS VL: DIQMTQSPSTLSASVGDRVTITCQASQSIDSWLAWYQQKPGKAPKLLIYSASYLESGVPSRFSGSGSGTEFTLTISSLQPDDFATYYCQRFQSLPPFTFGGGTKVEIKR

0.36
0.42
0.09
23
13.3
